# TARGET DESC: Peptide 5: Biotin-…-[Tyr(PC)]-acid
# Sequence (peptide, as listed by the source): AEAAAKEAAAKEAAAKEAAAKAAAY
# TEST SUMMARY: scFv ELISA
Listing: OD450 of selected binders
OBSERVED PROPERTY: OD450

[
  {
    "BINDER": "PcOxP_DB03_H03 (scFv, V domains shown, scFv in periplasmic extract) VH: EVQLLESGGGLVQPGGSLRLSCAASGFTGSDFYMEWVRQAPGKGLEWVAASRNKWNDYTTEYADSVKGRFTISRDNSKNTLYLQMNSLRAEDTAVYYCARDYYGSSYWYFDVWGQGTLVTVSS VL: DIQMTQSPSSLSASVGDRVTITCTASESLSSSKHKHYLAWYQQKPGKAPKLLIYGASSRYSGVPSRFSGSGSGTDFTLTISSLQPEDFATYYCAQFYSYPLTFGGGTKVEIK",
    "READING": "1.32 OD450"
  },
  {
    "BINDER": "PcOxP_DB03_C01 (scFv, V domains shown, scFv in periplasmic extract) VH: EVQLLESGGGLVQPGGSLRLSCAASGFTFSDFYMEWVRQAPGKGLEWVAASRNKANDYTTEVADSVKGRFTISRDNSKNTLYLQMNSLRAEDTAVYYCARDYYGSSNWYFDVWGQGTLVTVSS VL: DIVMTQSPDSLAVSLGERATINCTASESLYSSKIKVHYLAWYQQKPGQPPKLLIYGAHNRYIGVPDRFSGSGSGTDFTLTISSLQAEDVAVYYCAQFYSYPLTFGGGTKVEIK",
    "READING": "1.47 OD450"
  },
  {
    "BINDER": "PcOxP_DB04_B01 (scFv, V domains shown, scFv in periplasmic extract) VH: EVQLLESGGGLVQPGGSLRLSCAASGFTQSDFYMEWVRQAPGKGLEWVAASRNKANDYTTEYADSVKGRFTISRDNSKNTLYLQMNSLRAEDTAVYYCARDYYGESYWYFDVWGQGTLVTVSS VL: DIVMTQSPDSLAVSLGERATINCTASVSLYSSKHKVHYLAWYQQKPGQPPKLLIYGPSNRYIGVPDRFSGSGSGTDFTLTISSLQAEDVAVYYCAQFYSYPLTFGGGTKVEIK",
    "READING": "0.78 OD450"
  }
]
